Test: chemical genetic growth profiling, strain panel (AID 1159580);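 also: tested at 20 µM; growth read once vehicle control cultures reached saturation at 30 °C; 1 = growth at the plate median or of vehicle wells; lower values mean less growth of the strain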
Details: S. cerevisiae deletion strains, growth OD, locus YLR113W, strain HOG1, stronger effect = lower value
Out of some 5,500 compounds screened, about 2,000 (36%) were called active. Not shown: some 18% with an inconclusive outcome. This is one part of the list.
quantity-measured: normalized growth
Answers are plain numbers.

Quick one: normalized growth of `Fc1ccc(Nc2nc(-c3ccc(F)c(F)c3)cs2)c(F)c1` ?
0.189

Quick one: normalized growth of `Cc1c(C(=O)NCCNc2ccc(C(F)(F)F)cc2[N+](=O)[O-])cnn1-c1ccc(F)cc1` ?
0.904

Quick one: normalized growth of `CC1(C)C[C@@H]2C(=O)CC[C@H]3O[C@]3(C)CC[C@H]21` ?
0.951

I have 6 molecules here; please give me normalized growth for each one.
1. c1coc(CNc2ncnc3nc[nH]c23)c1
2. O=C(CCCN1CC=C(n2c(=O)[nH]c3ccccc32)CC1)c1ccc(F)cc1
3. CC(C)=CCOc1c2occc2cc2ccc(=O)oc12
4. COc1cc(O)c(C)c(O)c1
5. COC(=O)C[C@H]1C(C)(C)[C@@H](OC(C)=O)[C@@H]2CC3C4CC(=O)O[C@@H](c5ccoc5)[C@]4(C)CCC3[C@@]1(C)C2=O (stereo partly drawn)
6. COc1cc(O)c(C(C)=O)c(O)c1

1: 0.993; 2: 0.971; 3: 1.02; 4: 0.975; 5: 0.988; 6: 0.935
